Exercise: state measured EC50 hGLP1R 0.5% hP (CreLuc) for each of the binders provided.
tgt: GLP-1 receptor (human (printed as hGLP1R), UniProt P43220 24-463)
protocol notes: cell-based or functional assay
Starred links: 1 amine or outer side, 2 acyl side, 3 side chain; linkers in the order of their positions; H or OH if unused. Non-standard residues stand in square brackets, D forms with d. Groups on a side chain read outwards from the residue. No end group written: not given here. *: point of attachment. C20 diacid = O=C(O)CCCCCCCCCCCCCCCCCCC(=O)*; εLys = N[C@@H](CCCCN[*:1])C(=O)[*:2]; Aib = CC(C)(N)C(=O)O
Please state the number and follow it with the unit.

Prompt: Fill blank: measured EC50 hGLP1R 0.5% hP (CreLuc) of the binder YXEGTFTSDYSIXLEKQAQXAFVEWLIKGGPSSGASLRHYYNLLTRQRY (Aib at 2, 13, 20; K28 side chain carries C20DA-gGlu-gGlu-gGlu-gGlu-gGlu-gGlu-eLys; C-terminal amide) [Compound 195] is ____.
Completion: 130 pM

Prompt: Repeat for the following binder: Y[Aib]EGTFTSDYSI[Aib]LEKQAQ[Aib]AFVQWLIK([εLys-Glu-Glu-Glu-Glu-Glu-C20 diacid])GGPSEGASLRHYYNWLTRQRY-NH2 (also: TFA salt) [Compound 240]
Completion: 140 pM

Prompt: Repeat for the following binder: YXEGTFTSDYSIXLEKQAQXAFVEWLIKGGPSSGASLRHYYNWLTRQRX (Aib at 2, 13, 20; Tle at 49; K28 side chain carries C20DA-gGlu-gGlu-gGlu-gGlu-gGlu-gGlu-eLys; C-terminal amide) [Compound 191]
Completion: 170 pM
